Tested on: Rattus norvegicus
Experiment summary: Ratio of the distribution of [125I]-labeled compound in heart/blood of female Fischer 344 rat 1 day after intravenous administration.
Format: ADME, organism-based
Condition parameters: other tissue, 24 h
Readout kind: Heart/blood ratio

Heart/blood ratio reported for this compound `O=C(O)CCCCCCCCCCCCCCC/C=C/I` : 4.8

###

Test system: Rattus norvegicus
Experiment summary: Ratio of the distribution of [125I]-labeled compound in heart/blood of female Fischer 344 rat 2 hr after intravenous administration.
Assay type: ADME, organism-based
Condition parameters: other tissue
Readout kind: Heart/blood ratio

Consider `O=C(O)CCCCCCCCCCCCCCC/C=C/I` . Its measured Heart/blood ratio is 6.6
